Recorded values, source patent US7179943B2.

Structures can show the parent of a compound that is named as a salt.
Each entry below carries its recorded melting point.

Some entries whose results are on file:
>  <molecule>
O=C(Nc1cc(C(F)(F)F)cc(C(F)(F)F)c1)C1C(=O)C2CCC(C2)C1=O (stereo not shown) [Example 23]

>  <melting point>
88 to 90 °C

$$$$
>  <molecule>
CC1(C)C2CC1C(=O)C(C(=O)Nc1ccc(F)c(C(F)(F)F)c1)C2=O (stereo not shown) (as salt: sodium) [Example 31]

>  <melting point>
> 230 °C

$$$$
>  <molecule>
CC1(C)C2CC[C@]1(C)C(=O)C(C(=O)Nc1ccc(C(F)(F)F)cc1)C2=O (stereo partly shown) [Example 8]

>  <melting point>
81 to 83 °C

$$$$

Please look up its melting point: CC1(C)C2CC[C@]1(C)C(=O)C(C(=O)Nc1cccc([N+](=O)[O-])c1)C2=O (stereo partly shown) [Example 5]
100 to 102 °C

Same question for CC1(C)C2CC[C@@]1(C)C(=O)C(C(=O)Nc1cccc(C(F)(F)F)c1)C2=O (stereo partly shown) [Example 17] please.
66 to 68 °C

Same question for CC1(C)C2CC[C@@]1(C)C(=O)C(C(=O)Nc1cc(Cl)cc(Cl)c1)C2=O (stereo partly shown) [Example 13] please.
115 to 117 °C

Same question for CC1(C)C2CC1C(=O)C(C(=O)Nc1ccc(C(F)(F)F)cc1)C2=O (stereo not shown) (as salt: sodium) [Example 28] please.
> 230 °C

Same question for CC1(C)C2CC[C@@]1(C)C(=O)C(C(=O)Nc1ccc([N+](=O)[O-])cc1)C2=O (stereo partly shown) [Example 15] please.
168 to 170 °C

Same question for CC1(C)C2CC1C(=O)C(C(=O)Nc1cc(Cl)cc(Cl)c1)C2=O (stereo not shown) (as salt: sodium) [Example 33] please.
> 230 °C
